Assay: Pharmacokinetics of GCK in SPF and pseudo-GF rats after single oral administration (LC-MS/MS of plasma)
Assay type: in vivo, Sprague-Dawley (SD) rats
Conditions: Sprague-Dawley, rat, plasma, po, 22.5 mg/kg, SPF group, GCK 22.5 mg/kg single oral dose; read-out: AUC (0–11)
Protocol: SD rats were randomly divided into two groups: normal control group (SPF group, n = 7) and pseudo-GF group (n = 7). […] The feces were collected three days after withdrawal, and then the gut bacterial DNA was extracted with a stool DNA kit (Omega, D4015-01) and measured by Nonodrop 3000 spectrophotometer (Shimadzu, Japan). The mass spectrometer analysis was performed on QTRAP 6500^+ low mass spectrometers. […] Both GCK and PPD were analyzed in multiple reaction monitoring (MRM) mode, shown as Fig 1. […]
RESULT_TYPE: AUC(0-t)

MOLECULE: CC(C)=CCCC(C)(OC1OC(CO)C(O)C(O)C1O)C1CCC2(C)C1C(O)CC1C3(C)CCC(O)C(C)(C)C3CCC12C (stereo not shown) [GCK, Ginsenoside Compound K]
RESULT_TYPE: AUC(0-t)
VALUE_OBSERVED: 586 ng·h/mL

* * *

assay: Pharmacokinetics of GCK in SPF and pseudo-GF rats after single oral administration (LC-MS/MS of plasma); assay type: in vivo, Sprague-Dawley (SD) rats; conditions: Sprague-Dawley, rat, plasma, po, 22.5 mg/kg, pseudo-GF group, GCK 22.5 mg/kg single oral dose; read-out: Vz/F
RESULT_TYPE: Vd/F (L/kg)

COMPOUND: CC(C)=CCCC(C)(OC1OC(CO)C(O)C(O)C1O)C1CCC2(C)C1C(O)CC1C3(C)CCC(O)C(C)(C)C3CCC12C (stereo not shown) [GCK, Ginsenoside Compound K]
VALUE_OBSERVED: 63.2

* * *

Assay: Pharmacokinetics of GCK in SPF and pseudo-GF rats after single oral administration (LC-MS/MS of plasma)
Assay type: in vivo, Sprague-Dawley (SD) rats
Details: Sprague-Dawley, rat, plasma, po, 22.5 mg/kg, pseudo-GF group, GCK 22.5 mg/kg single oral dose
Protocol: SD rats were randomly divided into two groups: normal control group (SPF group, n = 7) and pseudo-GF group (n = 7). […] The feces were collected three days after withdrawal, and then the gut bacterial DNA was extracted with a stool DNA kit (Omega, D4015-01) and measured by Nonodrop 3000 spectrophotometer (Shimadzu, Japan). The mass spectrometer analysis was performed on QTRAP 6500^+ low mass spectrometers. […] Both GCK and PPD were analyzed in multiple reaction monitoring (MRM) mode, shown as Fig 1. […]
RESULT_TYPE: Tmax (h)

COMPOUND: CC(C)=CCCC(C)(OC1OC(CO)C(O)C(O)C1O)C1CCC2(C)C1C(O)CC1C3(C)CCC(O)C(C)(C)C3CCC12C (stereo not shown) [GCK, Ginsenoside Compound K]
UNIT_TEXT: h
VALUE_OBSERVED: 5.86

* * *

test: Pharmacokinetics of GCK in SPF and pseudo-GF rats after single oral administration (LC-MS/MS of plasma); type: in vivo, Sprague-Dawley (SD) rats; settings: Sprague-Dawley, rat, plasma, po, 22.5 mg/kg, pseudo-GF group, GCK 22.5 mg/kg single oral dose; read-out: CLz/F (converted)

MOLECULE: CC(C)=CCCC(C)(OC1OC(CO)C(O)C(O)C1O)C1CCC2(C)C1C(O)CC1C3(C)CCC(O)C(C)(C)C3CCC12C (stereo not shown) [GCK, Ginsenoside Compound K]
CL/F (mL/min/kg): 226

* * *

assay: Pharmacokinetics of GCK in SPF and pseudo-GF rats after single oral administration (LC-MS/MS of plasma); type: in vivo, Sprague-Dawley (SD) rats; details: Sprague-Dawley, rat, plasma, po, 22.5 mg/kg, pseudo-GF group, rat plasma, GCK 22.5 mg/kg single oral dose, n = 7, mean ± SD
RESULT_TYPE: Cmax (ng/mL)

COMPOUND: CC(C)=CCCC(C)(OC1OC(CO)C(O)C(O)C1O)C1CCC2(C)C1C(O)CC1C3(C)CCC(O)C(C)(C)C3CCC12C (stereo not shown) [GCK, Ginsenoside Compound K]
RESULT_TYPE: Cmax
VALUE_OBSERVED: 259

* * *

test: Pharmacokinetics of GCK in SPF and pseudo-GF rats after single oral administration (LC-MS/MS of plasma); format: in vivo, Sprague-Dawley (SD) rats; details: Sprague-Dawley, rat, plasma, po, 22.5 mg/kg, pseudo-GF group, GCK 22.5 mg/kg single oral dose; read-out: AUC (0–11)

COMPOUND: CC(C)=CCCC(C)(OC1OC(CO)C(O)C(O)C1O)C1CCC2(C)C1C(O)CC1C3(C)CCC(O)C(C)(C)C3CCC12C (stereo not shown) [GCK, Ginsenoside Compound K]
AUC(0-t), ng·h/mL: 1340

* * *

assay: Pharmacokinetics of GCK in SPF and pseudo-GF rats after single oral administration (LC-MS/MS of plasma); format: in vivo, Sprague-Dawley (SD) rats; conditions: Sprague-Dawley, rat, plasma, po, 22.5 mg/kg, SPF group, GCK 22.5 mg/kg single oral dose; read-out: CLz/F (converted)

COMPOUND: CC(C)=CCCC(C)(OC1OC(CO)C(O)C(O)C1O)C1CCC2(C)C1C(O)CC1C3(C)CCC(O)C(C)(C)C3CCC12C (stereo not shown) [GCK, Ginsenoside Compound K]
CL/F: 632 mL/min/kg

* * *

assay: Pharmacokinetics of GCK in SPF and pseudo-GF rats after single oral administration (LC-MS/MS of plasma); format: in vivo, Sprague-Dawley (SD) rats; settings: Sprague-Dawley, rat, plasma, po, 22.5 mg/kg, SPF group, GCK 22.5 mg/kg single oral dose

COMPOUND: CC(C)=CCCC(C)(OC1OC(CO)C(O)C(O)C1O)C1CCC2(C)C1C(O)CC1C3(C)CCC(O)C(C)(C)C3CCC12C (stereo not shown) [GCK, Ginsenoside Compound K]
AUC(0-inf) [ng·h/mL]: 679

* * *

assay: Pharmacokinetics of GCK in SPF and pseudo-GF rats after single oral administration (LC-MS/MS of plasma); format: in vivo, Sprague-Dawley (SD) rats; conditions: Sprague-Dawley, rat, plasma, po, 22.5 mg/kg, SPF group, GCK 22.5 mg/kg single oral dose

COMPOUND: CC(C)=CCCC(C)(OC1OC(CO)C(O)C(O)C1O)C1CCC2(C)C1C(O)CC1C3(C)CCC(O)C(C)(C)C3CCC12C (stereo not shown) [GCK, Ginsenoside Compound K]
half-life: 2.2 h

* * *

assay: Pharmacokinetics of GCK in SPF and pseudo-GF rats after single oral administration (LC-MS/MS of plasma); assay type: in vivo, Sprague-Dawley (SD) rats; details: Sprague-Dawley, rat, plasma, po, 22.5 mg/kg, SPF group, rat plasma, GCK 22.5 mg/kg single oral dose, n = 7, mean ± SD
RESULT_TYPE: Cmax (ng/mL)

MOLECULE: CC(C)=CCCC(C)(OC1OC(CO)C(O)C(O)C1O)C1CCC2(C)C1C(O)CC1C3(C)CCC(O)C(C)(C)C3CCC12C (stereo not shown) [GCK, Ginsenoside Compound K]
RESULT_TYPE: Cmax
VALUE_OBSERVED: 162

* * *

assay: Pharmacokinetics of GCK in SPF and pseudo-GF rats after single oral administration (LC-MS/MS of plasma); assay type: in vivo, Sprague-Dawley (SD) rats; conditions: Sprague-Dawley, rat, plasma, po, 22.5 mg/kg, SPF group, GCK 22.5 mg/kg single oral dose

COMPOUND: CC(C)=CCCC(C)(OC1OC(CO)C(O)C(O)C1O)C1CCC2(C)C1C(O)CC1C3(C)CCC(O)C(C)(C)C3CCC12C (stereo not shown) [GCK, Ginsenoside Compound K]
Tmax, h: 3.36

* * *

assay: Pharmacokinetics of GCK in SPF and pseudo-GF rats after single oral administration (LC-MS/MS of plasma); format: in vivo, Sprague-Dawley (SD) rats; details: Sprague-Dawley, rat, plasma, po, 22.5 mg/kg, pseudo-GF group, GCK 22.5 mg/kg single oral dose
RESULT_TYPE: half-life

COMPOUND: CC(C)=CCCC(C)(OC1OC(CO)C(O)C(O)C1O)C1CCC2(C)C1C(O)CC1C3(C)CCC(O)C(C)(C)C3CCC12C (stereo not shown) [GCK, Ginsenoside Compound K]
RESULT_TYPE: half-life
VALUE_OBSERVED: 3.93 h

The values you see were collected from paper PMC11343376.
